Substrate: O=C(O)C(=O)c1ccc(O)cc1
experiment notes: initial rates of reductive amination, HPLC, Michaelis-Menten fit
Format: biochemical, Corynebacterium glutamicum
run conditions: 0.5 mM NADPH, 10 mM NH4Cl, 50 mM Tris-HCl pH 8.0, 30 °C, HPGA 1-20 mM
parameter: kcat (s⁻¹)

INSERT INTO assay_data (protein, parameter, unit_symbol, measurement) VALUES
  ('CgDAPDH^BC621 (Corynebacterium glutamicum ATCC 13032; D120S/D154G/H244N/Q150L/R195M/T169P/W144S) (protein, five-fold mutant BC621 in pET28a, recombinant in E. coli BL21(DE3), HisTrap purified) MTNIRVAIVGYGNLGRSVEKLIAKQPDMDLVGIFSRRATLDTKTPVFDVADVDKHADDVDVLFLCMGSATDIPEQAPKFAQFACTVDTYDNHRDIPRHRQVMNEAATAAGNVALVSTGWSPGMFSINRVYAAAVLAEHQQHTFSGPGLSLGHSGALRRIPGVQKAVQYPLPSEDALEKARRGEAGDLTGKQTHKMQCFVVADAADHERIENDIRTMPDYFVGYEVEVNFIDEATFDSEHTGMPNGGHVITTGDTGGFNHTVEYILKLDRNPDFTASSQIAFGRAAHRMKQQGQSGAFTVLEVAPYLLSPENLDDLIARDV', 'kcat', 's⁻¹', 0.0448),
  ('CgDAPDH^BC621 (Corynebacterium glutamicum ATCC 13032; D154G/H244N/Q150L/R195M/T169I) (protein, five-fold mutant BC621 in pET28a, recombinant in E. coli BL21(DE3), HisTrap purified) MTNIRVAIVGYGNLGRSVEKLIAKQPDMDLVGIFSRRATLDTKTPVFDVADVDKHADDVDVLFLCMGSATDIPEQAPKFAQFACTVDTYDNHRDIPRHRQVMNEAATAAGNVALVSTGWDPGMFSINRVYAAAVLAEHQQHTFWGPGLSLGHSGALRRIPGVQKAVQYILPSEDALEKARRGEAGDLTGKQTHKMQCFVVADAADHERIENDIRTMPDYFVGYEVEVNFIDEATFDSEHTGMPNGGHVITTGDTGGFNHTVEYILKLDRNPDFTASSQIAFGRAAHRMKQQGQSGAFTVLEVAPYLLSPENLDDLIARDV', 'kcat', 's⁻¹', 0.00317);
